- test_target: GST-Bcl-XL (Homo sapiens, UniProt Q07817)
- Sequence (Q07817 whole entry): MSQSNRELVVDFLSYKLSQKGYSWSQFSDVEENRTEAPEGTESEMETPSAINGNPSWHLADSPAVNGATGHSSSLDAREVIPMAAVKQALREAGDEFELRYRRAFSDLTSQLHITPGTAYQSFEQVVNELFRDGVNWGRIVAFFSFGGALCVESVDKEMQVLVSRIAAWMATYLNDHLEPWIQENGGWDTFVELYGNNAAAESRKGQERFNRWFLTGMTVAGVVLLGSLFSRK
- experimental_details: TR-FRET binding assay, GST-Bcl-XL with F-Bak peptide probe
- test_conditions: TR-FRET Binding Affinity, GST-Bcl-XL, F-Bak peptide probe
- Procedure: Tb-anti-GST antibody was purchased from Invitrogen (Catalog No. PV4216). […] The samples were then mixed on a shaker for 1 minute and incubated for an additional 3 hours at room temperature. […] Fluorescence was measured on the ENVISION plate reader (Perkin Elmer) using a 340/35 nm excitation filter and 520/525 (F-Bak peptide) and 495/510 nm (Tb-labeled […] antibody) emission filters. […]
I'd appreciate it if you could supply Ki values for the items below.
One number for each entry, in nM.

{"columns": ["compound", "Ki, nM"],
 "data": [
  ["CCN1CCCC1CNC(=O)c1cc(S(=O)(=O)NC(=O)c2ccc(N3CCN(Cc4ccccc4-c4ccc(Cl)cc4)CC3)cc2Oc2ccccc2)ccc1OC (stereo not drawn)", 333],
  ["CN(C)CCOc1cccc(-c2ccc(Cl)cc2)c1CN1CCN(c2ccc(C(=O)NS(=O)(=O)c3ccc(NCCCN4CCCC4)c([N+](=O)[O-])c3)c(Oc3ccccc3)c2)CC1", 1.37]
]}

Problem: Find Ki (GST-Bcl-XL (Homo sapiens, UniProt Q07817)) for the entry CN1CCC(CNc2ccc(S(=O)(=O)NC(=O)c3ccc(N4CCN(CC5=C(c6ccc(Cl)cc6)CC(C)(C)CC5)CC4)cc3Oc3cccc4[nH]ccc34)cc2[N+](=O)[O-])CC1
Solution: 5.02

Source of measurements: patent US9073855B2
